assay.system: Broad substrate specificity ATP-binding cassette transporter ABCG2 (Homo sapiens, UniProt Q9UNQ0)
Sequence (Q9UNQ0 whole entry): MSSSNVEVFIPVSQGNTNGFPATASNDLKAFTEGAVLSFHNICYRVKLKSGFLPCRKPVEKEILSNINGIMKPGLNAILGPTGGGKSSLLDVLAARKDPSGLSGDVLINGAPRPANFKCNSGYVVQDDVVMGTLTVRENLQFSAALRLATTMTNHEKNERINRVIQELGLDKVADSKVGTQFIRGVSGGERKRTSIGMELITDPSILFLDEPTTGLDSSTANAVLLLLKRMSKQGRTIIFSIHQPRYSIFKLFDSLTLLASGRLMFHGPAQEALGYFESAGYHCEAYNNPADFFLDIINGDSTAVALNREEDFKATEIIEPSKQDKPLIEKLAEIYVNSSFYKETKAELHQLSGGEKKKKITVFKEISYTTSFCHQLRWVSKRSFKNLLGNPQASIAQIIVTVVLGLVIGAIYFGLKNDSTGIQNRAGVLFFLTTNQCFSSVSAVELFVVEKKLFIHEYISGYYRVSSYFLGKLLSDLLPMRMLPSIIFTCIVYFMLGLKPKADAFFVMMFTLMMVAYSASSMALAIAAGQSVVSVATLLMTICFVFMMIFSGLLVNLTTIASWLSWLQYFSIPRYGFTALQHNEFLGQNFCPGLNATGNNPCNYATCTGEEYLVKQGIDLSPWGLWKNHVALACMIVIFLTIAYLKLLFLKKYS
assay.comment: Inhibition of BCRP in human MCF7/MX cells assessed as Hoechst 33342 accumulation preincubated for 30 mins by Fluorometry
Format: cell-based
condition.label: read-out: IC50
IC50: recorded values

| smiles.repr | IC50 [µM] |
| --- | --- |
| O=C(/C=C/c1ccccc1Cl)c1ccc(O)cc1O | 3.21 |
| O=C(/C=C/c1ccc(Cl)cc1)c1ccc(O)cc1O | 6.07 |
| COc1ccc(C(=O)/C=C/c2ccc(OC)c(OC)c2)c(OC)c1 | 2.2 |
| COc1cc(O)c(C(=O)/C=C/c2ccc(OC)c(OC)c2)c(OC)c1 | 0.75 |
| COc1ccc(/C=C/C(=O)c2ccc3ccccc3c2O)cc1 | 16.9 |
| COc1ccc(/C=C/C(=O)c2ccc(O)cc2O)cc1 | 33.3 |
| O=C(/C=C/c1ccc(Cl)c(Cl)c1)c1c(O)ccc2ccccc12 | 8.78 |
| COc1ccc(/C=C/C(=O)c2ccc(OC)c(OC)c2)cc1 | 2.19 |
| COc1ccc(C(=O)/C=C/c2ccccc2)c(O)c1 | 31 |
| COc1cccc(/C=C/C(=O)c2ccc(OC)cc2O)c1 | 3.15 |
| O=C(/C=C/c1ccccc1Cl)c1c(O)ccc2ccccc12 | 5.21 |
| O=C(/C=C/c1ccc(Cl)c(Cl)c1)c1ccc2ccccc2c1O | 26.1 |
| COc1ccc(/C=C/C(=O)c2c(O)ccc3ccccc23)cc1OC | 1.84 |
| COc1cccc(/C=C/C(=O)c2c(O)ccc3ccccc23)c1 | 1.93 |
| O=C(/C=C/c1ccccc1)c1c(O)ccc2ccccc12 | 2.77 |
